Molecular target: MAO-B (Homo sapiens)
Construct: purchased Sigma-Aldrich
Sequence (P27338 whole entry): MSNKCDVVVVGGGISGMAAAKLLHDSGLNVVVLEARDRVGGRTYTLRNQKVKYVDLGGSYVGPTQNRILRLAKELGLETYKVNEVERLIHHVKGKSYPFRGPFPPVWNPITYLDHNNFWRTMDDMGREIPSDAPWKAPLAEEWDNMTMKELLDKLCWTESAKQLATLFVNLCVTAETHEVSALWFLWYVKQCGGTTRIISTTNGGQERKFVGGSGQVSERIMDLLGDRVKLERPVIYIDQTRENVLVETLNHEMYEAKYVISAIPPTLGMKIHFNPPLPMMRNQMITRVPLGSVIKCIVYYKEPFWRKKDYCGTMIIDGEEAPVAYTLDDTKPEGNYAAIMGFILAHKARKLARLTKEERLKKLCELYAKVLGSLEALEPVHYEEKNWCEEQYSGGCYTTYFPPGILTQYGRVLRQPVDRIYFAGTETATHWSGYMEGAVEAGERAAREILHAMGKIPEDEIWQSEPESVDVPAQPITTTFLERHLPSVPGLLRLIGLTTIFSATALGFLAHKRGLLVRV
Assay: biochemical
Conditions: mean ± standard error of duplicates; reference compounds after 30 min preincubation with enzyme; read-out: IC50 (µM) MAO-B
EXPERIMENTAL_READOUT: IC50 (µM)
Numbers only, in µM.

Recorded results for 2 molecules are shown here.
COc1ccc(C(/C=C/c2ccccc2)=N\Oc2ccc(/C=C/C(=O)c3ccc(C)cc3)cc2)cc1 :: 0.036
COc1ccc(/C=C/C(=O)c2ccc(O/N=C(/C=C/c3ccc(OC)cc3)c3ccc(OC)cc3)cc2)cc1 :: 0.15

Record IC50 per entry; entries follow.
1. COc1cc(/C=C/C(=O)c2ccc(ON=C(c3ccccc3)c3ccccc3)cc2)cc(OC)c1OC
2. COC(=O)c1ccc(O/N=C(/C=C/c2ccc(OC)cc2)c2ccc(OC)cc2)cc1

Result string:
1. 0.95
2. 0.85

The following molecules each have a reported value; give each one's IC50.
1. O=C(/C=C/c1ccc(ON=C(c2ccccc2)c2ccccc2)cc1)c1ccc(F)cc1
2. C/C(=N\Oc1ccc(/C=C/C(=O)c2ccccc2)cc1)c1ccc(F)cc1
3. COc1ccc(C(=O)/C=C/c2ccc(O/N=C3\CCc4ccccc43)cc2)cc1
4. COc1cccc(C(=O)/C=C/c2ccc(O/N=C(\C)c3cccc4ccccc34)cc2)c1
5. COc1ccc(/C=C/C(=O)c2ccc(O/N=C(\C)c3cccc4ccccc34)cc2)cc1OC
6. COc1ccc(/C=C/C(=N/Oc2ccc(C(C)=O)cc2)c2ccc(OC)cc2)cc1

Result string:
1. 0.028
2. 1.12
3. 0.059
4. 0.042
5. 1.58
6. 0.72

Field: IC50. Fill in for each record below.
1. COc1ccc(C(=O)/C=C/c2ccc(O/N=C(\C)c3ccc(OC)cc3)cc2)cc1
2. COc1ccc(C(=O)/C=C/c2ccc(ON=C(c3ccccc3)c3ccccc3)cc2)cc1
3. COc1ccc(/C=C/C(=N/Oc2ccc(/C=C/C(=O)c3ccccc3)cc2)c2ccc(OC)cc2)cc1

Result string:
1. 0.26
2. 0.048
3. 0.32
